Where do the numbers come from? From ChEMBL document CHEMBL1129262.

# Assay method text: Exclusion parameter (base pairs)
# Format: ADME
Experimental endpoint: Exclusion parameter

{"columns": ["Molecule", "Data value"],
 "data": [
  ["NCC(=O)NCC(=O)Nc1ccc(NC(=O)CNC(=O)CN)c2c1C(=O)c1ccccc1C2=O", 2.5],
  ["NCC(=O)Nc1ccc(N)c2c1C(=O)c1ccccc1C2=O", 2.1],
  ["NCC(=O)NCC(=O)Nc1ccc(N)c2c1C(=O)c1ccccc1C2=O", 2.2],
  ["NCCCC[C@H](N)C(=O)NCC(=O)Nc1ccc(NC(=O)CNC(=O)[C@@H](N)CCCCN)c2c1C(=O)c1ccccc1C2=O", 2.3],
  ["NCC(=O)Nc1ccc(NC(=O)CN)c2c1C(=O)c1ccccc1C2=O", 2.3],
  ["NCC(=O)NCC(=O)NCC(=O)Nc1ccc(NC(=O)CNC(=O)CNC(=O)CN)c2c1C(=O)c1ccccc1C2=O", 2.4],
  ["NCCCCC(N)C(=O)NCC(=O)Nc1ccc(NC(=O)CNC(=O)C(N)CCCCN)c2c1C(=O)c1ccccc1C2=O (configuration not stated)", 2.4]
]}

---

# Tested on: Nucleic Acid
# Assay method text: Intrinsic Binding constant of compound to DNA at pH 7 and 25 Centigrade
# Format: functional
# Particulars: Bos taurus
Experimental endpoint: K x10e-5 (M⁻¹)

I = NCC(=O)NCC(=O)Nc1ccc(N)c2c1C(=O)c1ccccc1C2=O
II = NCCCC[C@H](N)C(=O)NCC(=O)Nc1ccc(NC(=O)CNC(=O)[C@@H](N)CCCCN)c2c1C(=O)c1ccccc1C2=O
Query :: I'm curious whether I or II has the smaller K x10e-5 number. Which is it? Write the label of whichever entry you select.
Result :: I
(I: 1.7 M⁻¹, II: 17.5 M⁻¹)

A = NCC(=O)Nc1ccc(NC(=O)CN)c2c1C(=O)c1ccccc1C2=O
B = NCC(=O)Nc1ccc(N)c2c1C(=O)c1ccccc1C2=O
Query :: I'm curious whether A or B has the smaller K x10e-5 number. Which is it? Write the label of whichever entry you select.
Result :: A
(A: 2.2 M⁻¹, B: 3.6 M⁻¹)

---

# Test system: Nucleic Acid
# Assay method text: Intrinsic Binding constant of compound to DNA at pH 7 and 25 Centigrade
# Format: functional
# Particulars: Bos taurus
Experimental endpoint: K x10e-5 (M⁻¹)

{"columns": ["Compound", "Experimental endpoint", "Measurement unit", "Data value"],
 "data": [
  ["O=C1c2ccccc2C(=O)c2c(NCCNCCO)ccc(NCCNCCO)c21 [AMETANTRONE]", "K x10e-5", "M⁻¹", 3.4],
  ["NCC(=O)NCC(=O)Nc1ccc(NC(=O)CNC(=O)CN)c2c1C(=O)c1ccccc1C2=O", "K x10e-5", "M⁻¹", 2.4]
]}

1 = NCC(=O)NCC(=O)NCC(=O)Nc1ccc(NC(=O)CNC(=O)CNC(=O)CN)c2c1C(=O)c1ccccc1C2=O
2 = NCCCCC(N)C(=O)NCC(=O)Nc1ccc(NC(=O)CNC(=O)C(N)CCCCN)c2c1C(=O)c1ccccc1C2=O (centres undefined)
Query :: When their K x10e-5 values are compared, which is larger, 1 or 2 ? Write the label of whichever entry you select.
Result :: 2
